system-name: T1, CRBN, Q96SW2;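 further: pooled lentiviral library of zinc finger degron-EGFP fusions in mCherry-positive Jurkat cells, FACS-sorted after compound exposure, with degron abundance counted by next-generation sequencing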
T1 chain: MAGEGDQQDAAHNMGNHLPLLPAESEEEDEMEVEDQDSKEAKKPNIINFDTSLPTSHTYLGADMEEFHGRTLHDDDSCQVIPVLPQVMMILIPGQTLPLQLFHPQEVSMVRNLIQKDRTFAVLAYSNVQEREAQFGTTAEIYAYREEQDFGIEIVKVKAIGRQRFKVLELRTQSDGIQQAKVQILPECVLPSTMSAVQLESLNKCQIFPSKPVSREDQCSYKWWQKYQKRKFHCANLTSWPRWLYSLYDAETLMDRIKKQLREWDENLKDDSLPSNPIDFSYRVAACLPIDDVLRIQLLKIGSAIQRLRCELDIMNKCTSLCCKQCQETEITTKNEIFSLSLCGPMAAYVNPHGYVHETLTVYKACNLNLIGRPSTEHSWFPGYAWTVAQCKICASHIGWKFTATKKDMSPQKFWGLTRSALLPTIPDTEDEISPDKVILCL
assay-notes: log2 fold change of degron read counts, EGFP-low vs EGFP+ sorted cells (limma voom), compound-induced degradation; higher = more compound-induced degradation of the degron-EGFP fusion; degrons are variants of IKZF1/3 zinc finger 2; compound dose not given here
details: Jurkat; 18 h; compound: compound 19 (5-tert-butyl-thalidomide)
In all, about 8,300 sequences were measured (“log2 fold change of degron read counts, EGFP-low vs EGFP+ sorted cells (limma voom), compound-induced degradation”: median about -1.1, highest 2% from about 3.2 on). The sample holds the highest values, similar sequences and a random draw of the others, so the mix is not that of the screen.
quantity: log2 fold change of degron read counts
I'd appreciate a reply containing only the number, no unit.

Example entries and their recorded answers appear below.
>>> numeric_value("FECPQCGAKFTQKGNLLRHIKL [46F_47E_49P_50Q_52G_53A_54K_55F_67L_, Q9UKT9]")
-1.95
>>> numeric_value("FMCEVCGAPFTQKGNLLRHIKL [46F_47M_49E_50V_52G_53A_54P_55F_67L_, Q9UKT9]")
2.75
>>> numeric_value("FACPQCGAQFTQKGNLLRHIKL [46F_47A_49P_50Q_52G_53A_54Q_55F_67L_, Q9UKT9]")
0.495
>>> numeric_value("FVCNQCGHRFTQKGNLLRHIKL [46F_47V_49N_50Q_52G_53H_54R_55F_67L_, Q9UKT9]")
-2.83
>>> numeric_value("FRCEVCGAAFTQKGNLLRHIKL [46F_47R_49E_50V_52G_53A_54A_55F_67L_, Q9UKT9]")
2.61

Can you look up the measured log2 fold change of degron read counts of FVCPQCGAQFTQKGNLLRHIKL [46F_47V_49P_50Q_52G_53A_54Q_55F_67L_, Q9UKT9] for me?
-1.74

Can you look up the measured log2 fold change of degron read counts of FSCPVCGAQFTQKGNLLRHIKL [46F_47S_49P_50V_52G_53A_54Q_55F_67L_, Q9UKT9] for me?
2.24

Can you look up the measured log2 fold change of degron read counts of FCCPVCGAQFTQKGNLLRHIKL [46F_47C_49P_50V_52G_53A_54Q_55F_67L_, Q9UKT9] for me?
2.69

Can you look up the measured log2 fold change of degron read counts of FFCPVCGAAFTQKGNLLRHIKL [46F_47F_49P_50V_52G_53A_54A_55F_67L_, Q9UKT9] for me?
2.88

Can you look up the measured log2 fold change of degron read counts of FWCPVCGAQFTQKGNLLRHIKL [46F_47W_49P_50V_52G_53A_54Q_55F_67L_, Q9UKT9] for me?
2.98

Can you look up the measured log2 fold change of degron read counts of FMCPVCGAQFTQKGNLLRHIKL [46F_47M_49P_50V_52G_53A_54Q_55F_67L_, Q9UKT9] for me?
-0.258

The origin of these recorded values is the supplement of paper PMC12645437.
